Reported pEC50 values follow for various molecules
Target: sGC α1/β1 heterodimer (Homo sapiens, UniProt Q02108+Q02153)
Assay: Cell-based sGC functional assay (CASA assay): cGMP generation in CHO-K1/sGC cells, HTRF detection
Details: inflection point (IP) of cGMP generation in CHO-K1/sGC cells, 4P fit; activity expressed as percentage of Compound A
Bear in mind: pEC50 is minus log10 of a mol/L concentration; give just that figure.

molecule | quantitative_readout
CC1(c2ccc(F)c(Cl)c2)C(=O)Nc2nc(-c3cn4ccnc4c(CCC(F)(F)F)n3)nc(N)c21 (stereo not drawn) [Example 193B] | 6.45

Exercise: I'd like to know its pEC50. The molecule in question is CC1(c2ccc(F)cc2)C(=O)Nc2nc(-c3cn4ccnc4c(Cc4c(F)ccc(F)c4F)n3)nc(N)c21 (stereo not drawn) [Example 98A]
Solution: 7.89

Exercise: Also need CC1(c2ccc(F)cn2)C(=O)Nc2nc(-c3cn4ccnc4c(Cc4ccc(F)cc4)n3)nc(N)c21 (stereo not drawn) [Example 69B] , thanks.
Solution: 8.05

Exercise: Same lookup for CC1(c2ccc(F)cn2)C(=O)Nc2nc(-c3cn4ccnc4c(CCCC(F)(F)F)n3)nc(N)c21 (stereo not drawn) [Example 210B] , please.
Solution: 7.40

Exercise: Would you mind doing COCCNc1nc(-c2cn3ccnc3c(CCC(F)(F)F)n2)nc2c1C(C)(c1ccc(Cl)cc1)C(=O)N2 (stereo not drawn) [Example 296A] as well?
Solution: 6.85

Exercise: Entry Nc1nc(-c2cn3ccnc3c(CCC(F)(F)C(F)(F)F)n2)nc2c1C(c1ccccn1)(C1CC1)C(=O)N2 (stereo not drawn) [Example 382B] please
Solution: 6.34

Exercise: Lookup CC1(c2ccc(Cl)cc2)C(=O)Nc2nc(-c3cn4ccnc4c(Cc4ccc(F)c(F)c4)n3)nc(N)c21 (stereo not drawn) [Example 97A]
Solution: 8.30

Exercise: Now try CCCCc1nc(-c2nc(N)c3c(n2)NC(=O)C3(c2ccc(Cl)cn2)C2CC2)cn2ccnc12 (stereo not drawn) [Example 336B] .
Solution: 7.66

Exercise: How about this molecule: NC(=O)C1(C2CC2)C(=O)Nc2nc(-c3cn4ccnc4c(Cc4cccc(F)c4)n3)nc(N)c21 (stereo not drawn) [Example 42B]
Solution: 7.49

Exercise: Now consider CCc1ccc(C2(C)C(=O)Nc3nc(-c4cn5ccnc5c(CCC(F)(F)C(F)(F)F)n4)nc(N)c32)cn1 (stereo not drawn) [Example 243B] .
Solution: 6.68

Exercise: // same read-out, input: COc1ccc(C2(C)C(=O)Nc3nc(-c4cn5ccnc5c(CCC(F)(F)F)n4)nc(N)c32)cc1 (stereo not drawn) [Example 192B]
Solution: 6.03

Exercise: Same lookup for Nc1nc(-c2cn3ccnc3c(CCC(F)(F)F)n2)nc2c1C(c1ccc(F)cc1)(C1CC1)C(=O)N2 (stereo not drawn) [Example 194B] , please.
Solution: 6.57

Exercise: Same question, CC1(C(=O)NC2CC2)C(=O)Nc2nc(-c3cn4ccnc4c(Cc4cccc(F)c4)n3)nc(N)c21 (single isomer, unassigned) [Example 36A] this time
Solution: 6.52

Exercise: Entry CC(F)(F)c1ccc(C2(C)C(=O)Nc3nc(-c4cn5ccnc5c(CCC(F)(F)C(F)(F)F)n4)nc(N)c32)cn1 (single isomer, unassigned) [Example 379A] please
Solution: 6.82

Exercise: COc1cn2cc(-c3nc(N)c4c(n3)NC(=O)C4(C)c3ccc(F)cn3)nc(CCC(F)(F)C(F)(F)F)c2n1 (stereo not drawn) [Example 175B] , same question.
Solution: 6.30

====

Biological target: sGC α1/β1 heterodimer (Homo sapiens, UniProt Q02108+Q02153)
Experiment: Cell-based sGC functional assay (CASA assay): cGMP generation in CHO-K1/sGC cells, HTRF detection
Settings: inflection point (IP) of cGMP generation in CHO-K1/sGC cells, 4P fit; activity expressed as percentage of Compound A
measurement_label: EC50 (µM)
Numeric answer only, unit µM assumed.

Take a look at these entries with their results.
compound | measurement_label | unit_spec | quantitative_readout
CCc1cn2cc(-c3nc(N)c4c(n3)NC(=O)C4(C)c3ccccc3)nc(CCC(F)(F)C(F)(F)F)c2n1 (centres unmarked) [Example 160B] | EC50 | µM | 0.978
CCCc1nc(-c2nc(N)c3c(n2)NC(=O)C3(c2ccc(C(F)(F)F)cn2)C2CC2)cn2ccnc12 (centres unmarked) [Example 341A] | EC50 | µM | 2.1
CC1(c2ccc(Cl)cn2)C(=O)Nc2nc(-c3cn4ccnc4c(CCCC(F)(F)F)n3)nc(N)c21 (centres unmarked) [Example 208A] | EC50 | µM | 0.036
CC1(c2ccc(F)cc2)C(=O)Nc2nc(-c3cn4cc(C(F)(F)F)nc4c(Cc4cccc(F)c4F)n3)nc(N)c21 (centres unmarked) [Example 148A] | EC50 | µM | 0.024
Cn1nnnc1C1(C2CC2)C(=O)Nc2nc(-c3cn4ccnc4c(CCC(F)(F)C(F)(F)F)n3)nc(N)c21 (single isomer, unassigned) [Example 325A] | EC50 | µM | 1.21

Exercise: Consider the compound CCCCc1nc(-c2nc(N)c3c(n2)NC(=O)C3(C)c2ccc(F)cn2)cn2c(C)cnc12 (centres unmarked) [Example 165B] and give its measured EC50.
Solution: 0.043

Exercise: Try CC1(c2ccc(Cl)c(F)c2)C(=O)Nc2nc(-c3cn4ccnc4c(CCCC(F)(F)F)n3)nc(N)c21 (centres unmarked) [Example 204B] next.
Solution: 0.014

Exercise: And then Cc1cnc(C2(C3CC3)C(=O)Nc3nc(-c4cn5ccnc5c(CCC(F)(F)C(F)(F)F)n4)nc(N)c32)cn1 (single isomer, unassigned) [Example 342B] , what is it?
Solution: 0.695

Exercise: Same for CC1(c2ccccc2)C(=O)Nc2nc(-c3cn4ccnc4c(CCC(F)(F)F)n3)nc(N)c21 (centres unmarked) [Example 188B]
Solution: 0.304

Exercise: And then CC(C)Cc1nc(-c2nc(N)c3c(n2)NC(=O)C3(c2ccc(F)c(F)c2)C2CC2)cn2ccnc12 (centres unmarked) [Example 335A] , what is it?
Solution: 0.303

Exercise: Please answer likewise for CC1(c2ccc(C(F)(F)F)cn2)C(=O)Nc2nc(-c3cn4ccnc4c(CCCC(F)(F)F)n3)nc(N)c21 (centres unmarked) [Example 213B]
Solution: 0.1

Exercise: What about this compound? CC1(c2ccccn2)C(=O)Nc2nc(-c3cn4ccnc4c(CCC(F)(F)C(F)(F)F)n3)nc(N)c21 (centres unmarked) [Example 226A]
Solution: 0.287

Exercise: And then CC(C)c1nnc(C2(C3CC3)C(=O)Nc3nc(-c4cn5ccnc5c(CCC(F)(F)C(F)(F)F)n4)nc(N)c32)s1 (centres unmarked) [Example 55A] , what is it?
Solution: 0.634

Exercise: Try CC1(c2ccc(F)cc2)C(=O)Nc2nc(-c3cn4ccnc4c(Cc4ccc(F)c(F)c4)n3)nc(N)c21 (centres unmarked) [Example 96A] next.
Solution: 0.004

Exercise: CC1(c2ccc(F)cc2)C(=O)Nc2nc(-c3cn4ccnc4c(CCC4CCCCC4)n3)nc(N)c21 (centres unmarked) [Example 12A] ?
Solution: 0.053

Exercise: Consider next the compound CCC1(c2ccc(F)cn2)C(=O)Nc2nc(-c3cn4ccnc4c(Cc4ccc(F)cc4)n3)nc(N)c21 (centres unmarked) [Example 106A] in the same way.
Solution: 0.252

Exercise: Try the compound CC1(c2nnc(C3CC3)s2)C(=O)Nc2nc(-c3cn4ccnc4c(CCC(F)(F)C(F)(F)F)n3)nc(N)c21 (centres unmarked) [Example 59A]
Solution: 0.067

Exercise: Next up: CC1(c2ccc(F)cn2)C(=O)Nc2nc(-c3cn4ccnc4c(CCC(F)(F)C(F)(F)F)n3)nc(N3CCOCC3)c21 (centres unmarked) [Example 294B]
Solution: 0.444

Exercise: Try this compound too: CCc1nc(-c2nc(N)c3c(n2)NC(=O)C3(C)c2ccc(Cl)cc2)cn2ccnc12 (single isomer, unassigned)
Solution: 0.894

Exercise: Also need Cc1cn2cc(-c3nc(N)c4c(n3)NC(=O)C4(C)c3ccc(F)cc3)nc(CCC(F)(F)C(F)(F)F)c2n1 (centres unmarked) [Example 170A] , thanks.
Solution: 0.057

====

Biological target: sGC α1/β1 heterodimer (Homo sapiens, UniProt Q02108+Q02153)
Sequence (Q02108 1-690): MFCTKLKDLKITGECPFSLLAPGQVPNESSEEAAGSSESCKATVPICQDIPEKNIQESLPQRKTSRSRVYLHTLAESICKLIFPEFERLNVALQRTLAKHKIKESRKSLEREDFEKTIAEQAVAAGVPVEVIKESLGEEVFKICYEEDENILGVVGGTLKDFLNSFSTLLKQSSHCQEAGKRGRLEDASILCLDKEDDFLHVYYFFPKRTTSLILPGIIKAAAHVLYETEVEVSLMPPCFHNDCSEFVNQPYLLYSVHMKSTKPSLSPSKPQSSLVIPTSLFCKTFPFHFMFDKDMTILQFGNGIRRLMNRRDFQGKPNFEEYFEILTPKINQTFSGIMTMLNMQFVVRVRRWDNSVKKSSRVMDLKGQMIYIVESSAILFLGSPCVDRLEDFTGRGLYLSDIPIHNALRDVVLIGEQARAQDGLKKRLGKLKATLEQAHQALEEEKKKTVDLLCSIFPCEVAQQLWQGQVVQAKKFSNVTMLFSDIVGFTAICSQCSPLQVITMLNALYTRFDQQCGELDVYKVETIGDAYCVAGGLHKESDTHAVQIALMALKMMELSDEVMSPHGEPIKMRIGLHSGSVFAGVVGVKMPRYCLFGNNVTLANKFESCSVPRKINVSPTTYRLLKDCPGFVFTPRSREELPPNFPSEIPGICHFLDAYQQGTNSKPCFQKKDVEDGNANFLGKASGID
Sequence (Q02153 1-619): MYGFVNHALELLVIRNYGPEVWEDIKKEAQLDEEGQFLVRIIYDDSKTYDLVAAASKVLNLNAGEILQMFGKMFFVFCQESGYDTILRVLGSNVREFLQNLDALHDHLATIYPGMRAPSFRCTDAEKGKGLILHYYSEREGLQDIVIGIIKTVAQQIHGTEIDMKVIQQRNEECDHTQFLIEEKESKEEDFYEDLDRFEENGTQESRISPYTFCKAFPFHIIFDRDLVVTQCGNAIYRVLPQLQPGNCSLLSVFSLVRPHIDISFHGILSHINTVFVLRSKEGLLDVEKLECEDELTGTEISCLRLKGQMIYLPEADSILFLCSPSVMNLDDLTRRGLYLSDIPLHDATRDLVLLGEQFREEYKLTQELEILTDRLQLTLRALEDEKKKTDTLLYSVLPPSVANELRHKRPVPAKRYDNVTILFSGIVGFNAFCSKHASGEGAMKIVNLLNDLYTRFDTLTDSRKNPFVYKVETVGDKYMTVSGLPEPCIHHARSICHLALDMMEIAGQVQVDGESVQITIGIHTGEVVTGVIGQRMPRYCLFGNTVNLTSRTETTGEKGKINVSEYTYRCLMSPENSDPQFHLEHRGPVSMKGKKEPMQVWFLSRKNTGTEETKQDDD
Experiment: Cell-based sGC functional assay (CASA assay): cGMP generation in CHO-K1/sGC cells, HTRF detection
Conditions: inflection point (IP) of cGMP generation in CHO-K1/sGC cells, 4P fit; activity expressed as percentage of Compound A
# pEC50 per entry
Please treat pEC50 as minus the base-10 logarithm of the molar concentration.

Some compounds with known pEC50 results, for comparison:
compound | quantitative_readout
CC1(c2ccc(F)cc2)C(=O)Nc2nc(-c3cn4c(Cc5ccccc5)cnc4c(CCC(F)(F)C(F)(F)F)n3)nc(N)c21 (stereo not drawn) [Example 260A] | 6.30
CCC1(c2ccc(Br)cc2)C(=O)Nc2nc(-c3cn4ccnc4c(CCC(F)(F)F)n3)nc(N)c21 (stereo not drawn) [Example 197A] | 6.79
CC1(C)C(=O)Nc2nc(-c3cn4ccnc4c(CCC(F)(F)C(F)(F)F)n3)nc(N)c21 | 6.40
CNc1nc(-c2cn3ccnc3c(CCC(F)(F)C(F)(F)F)n2)nc2c1C(C)(c1ccc(F)cn1)C(=O)N2 (stereo not drawn) [Example 290B] | 6.55
CCC(CC)Cc1nc(-c2nc(N)c3c(n2)NC(=O)C3(C)c2ccc(Cl)cc2)cn2ccnc12 (stereo not drawn) | 7.22
CC1(c2ccc(F)cc2)C(=O)Nc2nc(-c3cn4ccnc4c(C4CC4)n3)nc(N)c21 (stereo not drawn) [Example 28A] | 6.19
CCOc1ccc(C2(C)C(=O)Nc3nc(-c4cn5ccnc5c(CCC(F)(F)C(F)(F)F)n4)nc(N)c32)cn1 (stereo not drawn) [Example 244B] | 7.09
CC1(c2ccc(Cl)cn2)C(=O)Nc2nc(-c3cn4ccnc4c(CCC(F)(F)C(F)(F)F)n3)nc(N)c21 (stereo not drawn) [Example 228A] | 7.70
CC1(c2ccc(F)cc2)C(=O)Nc2nc(-c3cn4c(Cl)cnc4c(CCC(F)(F)F)n3)nc(N)c21 (stereo not drawn) [Example 258A] | 7.05
CC1(c2ccc(F)cc2)C(=O)Nc2nc(-c3cn4c(C#N)cnc4c(CCC(F)(F)C(F)(F)F)n3)nc(N)c21 (stereo not drawn) [Example 273A] | 7.21

Exercise: Request the reported pEC50 associated with CC1(c2ccc(F)cc2)C(=O)Nc2nc(-c3cn4ccnc4c(CCC(F)(F)F)n3)nc(N)c21 (stereo not drawn) [Example 184A]
Solution: 6.75

Exercise: Param item: CC1(c2ccc(Cl)cc2Cl)C(=O)Nc2nc(-c3cn4ccnc4c(CCC(F)(F)F)n3)nc(N)c21 (stereo not drawn) [Example 187A]
Solution: 5.97

Exercise: Try CC1(c2ccc(F)cc2)C(=O)Nc2nc(-c3cn4ccnc4c(Cc4cccc(Cl)c4)n3)nc(N)c21 (stereo not drawn) [Example 94A] next.
Solution: 8.30

Exercise: What do you have for CC1(C)CN(c2nc(-c3cn4ccnc4c(CCC(F)(F)C(F)(F)F)n3)nc3c2C(C)(c2ccc(F)cc2)C(=O)N3)C1 (stereo not drawn) [Example 302A] ?
Solution: 6.26

Exercise: Similarly, CC1(c2ccc(C3CC3)nn2)C(=O)Nc2nc(-c3cn4ccnc4c(CCC(F)(F)C(F)(F)F)n3)nc(N)c21 (stereo not drawn) [Example 253B] ?
Solution: 7.29

src = patent US9796733B2
